- Assayed System: Caspase-7 (Homo sapiens, UniProt P55210)
- Sequence (P55210 whole entry): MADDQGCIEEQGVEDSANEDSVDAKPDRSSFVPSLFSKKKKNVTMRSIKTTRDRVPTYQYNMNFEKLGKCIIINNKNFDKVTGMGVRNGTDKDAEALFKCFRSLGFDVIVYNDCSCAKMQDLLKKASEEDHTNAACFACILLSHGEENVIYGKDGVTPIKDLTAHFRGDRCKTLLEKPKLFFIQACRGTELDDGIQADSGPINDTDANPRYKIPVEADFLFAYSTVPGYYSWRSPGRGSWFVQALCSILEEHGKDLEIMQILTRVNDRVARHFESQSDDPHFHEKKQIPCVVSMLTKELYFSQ
- Protocol: Inhibition of recombinant human caspase-7 expressed in Escherichia coli using Ac-DEVD-AMC as substrate preincubated for 30 mins before substrate addition measured after 2 hrs
Endpoint Name: IC50
Number first, unit second: that is the form wanted.

INSERT INTO results (compound_structure_string, data_value) VALUES
  ('O=C1C(=O)N(Cc2ccc(OCCF)cc2)c2ccc(S(=O)(=O)N3CCC[C@H]3CF)cc21', '41.4 nM'),
  ('O=C1C(=O)N(Cc2ccc(Cl)cc2)c2ccc(S(=O)(=O)N3CCC[C@H]3CF)cc21', '14.2 nM'),
  ('O=C1C(=O)N(Cc2cccc([N+](=O)[O-])c2)c2ccc(S(=O)(=O)N3CCC[C@H]3CF)cc21', '16.5 nM'),
  ('O=C1C(=O)N(Cc2cccc(I)c2)c2ccc(S(=O)(=O)N3CCC[C@H]3CF)cc21', '21.8 nM'),
  ('COc1ccc(CN2C(=O)C(=O)c3cc(S(=O)(=O)N4CCC[C@H]4CF)ccc32)cc1', '9.6 nM'),
  ('O=C1C(=O)N(Cc2ccc(I)cc2)c2ccc(S(=O)(=O)N3CCC[C@H]3CF)cc21', '5.4 nM');

Moving on to the next compound.
Consider O=C1C(=O)N(Cc2ccccc2)c2ccc(S(=O)(=O)N3CCC[C@H]3CF)cc21 . Its measured IC50 is 20.4 nM

---

- Assayed System: Caspase-6 (Homo sapiens)
- Sequence (P55212 whole entry): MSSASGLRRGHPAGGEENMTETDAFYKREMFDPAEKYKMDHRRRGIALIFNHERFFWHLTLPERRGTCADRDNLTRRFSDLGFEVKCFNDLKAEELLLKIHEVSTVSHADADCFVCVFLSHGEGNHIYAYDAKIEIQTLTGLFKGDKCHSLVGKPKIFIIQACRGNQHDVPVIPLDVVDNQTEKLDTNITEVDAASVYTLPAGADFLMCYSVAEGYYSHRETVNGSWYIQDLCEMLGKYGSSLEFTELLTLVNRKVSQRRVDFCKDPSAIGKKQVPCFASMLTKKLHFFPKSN
- Protocol: Inhibition of recombinant human caspase-6 expressed in Escherichia coli using Ac-VEID-AMC as substrate preincubated for 30 mins before substrate addition measured after 2 hrs
pIC50: −log10 of the molar value.
Endpoint Name: pIC50

Here are 2 molecules together with their reported answers.
INSERT INTO results (compound_structure_string, data_value) VALUES
  ('O=C1C(=O)N(Cc2cccc(I)c2)c2ccc(S(=O)(=O)N3CCC[C@H]3CF)cc21', '< 5.00'),
  ('O=C1C(=O)N(Cc2ccc(OCCF)cc2)c2ccc(S(=O)(=O)N3CCC[C@H]3CF)cc21', '< 5.00');

Consider O=C1C(=O)N(Cc2nnnn2Cc2ccccc2)c2ccc(S(=O)(=O)N3CCC[C@H]3CF)cc21 . Its measured pIC50 is < 5.00
